Attribution: patent US5614562A

system: HCT/VP35; assay: In vitro cytotoxicity, VP16 resistant HCT/VP35 human colon carcinoma; assay type: cell-based; settings: Homo sapiens, HCT/VP35; VP16 resistant; data provided by Bristol-Myers Laboratories
Assignment: determine reported IC50 for the given compounds.
Field: numeric (µg/mL). Do not append units.

Task: Could you tell me which IC50 is on file for COc1ccc([Se](=O)(=O)CCCl)cc1 [2-chloroethyl 4-methoxy-phenyl selenone] ?
Output: 0.6

Task: # IC50 lookup, item COc1cc([C@@H]2c3cc4c(cc3[C@@H](O[C@@H]3O[C@@H]5CO[C@@H](c6cccs6)O[C@H]5[C@H](O)[C@H]3O)[C@H]3COC(=O)[C@H]23)OCO4)cc(OC)c1O [VM-26 (Teniposide), Teniposide]
Output: 0.53

Task: Data request, read-out IC50, for COc1cc([C@@H]2c3cc4c(cc3[C@@H](O[C@@H]3O[C@@H]5CO[C@@H](C)O[C@H]5[C@H](O)[C@H]3O)[C@H]3COC(=O)[C@H]23)OCO4)cc(OC)c1O [VP-16 (Etoposide), Etoposide]
Output: 4.62

Task: Which value of IC50 has been reported for O=[Se](=O)(CCCl)c1ccccc1 [2-chloroethyl phenyl selenone] in the records?
Output: 0.82
